inhibition values, listed per item
target: UniProt:Q14680; test: radiometric filter-binding kinase assay; settings: compound 100.0 µM; ATP 50 µM
Sequence (Q14680 whole entry, looked up): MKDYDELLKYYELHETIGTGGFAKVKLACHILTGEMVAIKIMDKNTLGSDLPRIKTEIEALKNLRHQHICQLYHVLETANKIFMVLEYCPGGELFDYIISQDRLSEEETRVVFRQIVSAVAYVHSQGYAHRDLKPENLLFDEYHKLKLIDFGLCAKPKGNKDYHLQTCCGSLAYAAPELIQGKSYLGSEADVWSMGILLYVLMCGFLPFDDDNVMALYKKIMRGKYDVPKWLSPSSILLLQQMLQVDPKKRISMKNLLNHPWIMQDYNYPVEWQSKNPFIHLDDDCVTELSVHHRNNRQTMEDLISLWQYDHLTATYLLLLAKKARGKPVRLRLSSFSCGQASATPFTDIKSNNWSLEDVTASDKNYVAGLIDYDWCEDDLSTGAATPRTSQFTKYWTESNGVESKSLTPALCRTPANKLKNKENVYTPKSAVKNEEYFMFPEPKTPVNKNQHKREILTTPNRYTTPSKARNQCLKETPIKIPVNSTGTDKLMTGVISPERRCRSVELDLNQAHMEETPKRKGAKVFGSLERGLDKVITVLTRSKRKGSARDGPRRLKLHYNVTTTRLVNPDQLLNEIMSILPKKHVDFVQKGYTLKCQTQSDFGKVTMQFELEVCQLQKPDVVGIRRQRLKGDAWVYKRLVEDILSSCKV
The answer is to be given in %; state only the numeric part.

Please review the entries below; each comes with its answer.
O=c1c(NC(=S)NCc2ccccc2)cnc2[nH]ccn12 | 0
Nc1cnc2c(-c3c(F)cccc3F)cccn2c1=O | 43
Cc1cccc(C)c1-c1cn2nc(N)nc2cn1 | 8
COc1ccc(NC(=S)Nc2cnc3[nH]cnn3c2=O)cn1 | 0
Nc1nc2cnc(-c3ccccc3)cn2n1 | 13
CC(C)(C)Nc1c(C2CC2)nc2[nH]cnn12 | 0

Kindly consider the entry below.
Record request: inhibition value, item CC1CN(c2nc3ccccn3c(=O)c2N)CC(C)O1 (configuration not stated) 7

---

inhibition values, listed per item
target: CDK2 CCNA2 (human) (UniProt P20248+P24941); assay: radiometric filter-binding kinase assay; details: compound 100.0 µM; ATP 20 µM
Entry format: amount then unit.

Please review the entries below; each comes with its answer.
O=c1c(NC(=S)NCc2ccccc2)cnc2[nH]ccn12 | 0%
CC(C)(C)Nc1c(COCc2ccccc2)nc2[nH]cnn12 | 14%

Record request: inhibition value, item O=c1cc(-c2ccccc2F)nc2[nH]ccn12 21%

Record request: inhibition value, item CC(C)(C)Nc1c(C2CC2)nc2[nH]cnn12 33%

Record request: inhibition value, item COc1ccc(NC(=S)Nc2cnc3[nH]cnn3c2=O)cn1 0%

Record request: inhibition value, item COc1ccc(-c2cc3c(=O)[nH]cnc3s2)cc1OC 0%

---

inhibition values, listed per item
biological target: PRKCZ (human) (UniProt Q05513); assay: radiometric filter-binding kinase assay; settings: compound 100.0 µM; ATP 5 µM
Sequence (Q05513 whole entry, looked up): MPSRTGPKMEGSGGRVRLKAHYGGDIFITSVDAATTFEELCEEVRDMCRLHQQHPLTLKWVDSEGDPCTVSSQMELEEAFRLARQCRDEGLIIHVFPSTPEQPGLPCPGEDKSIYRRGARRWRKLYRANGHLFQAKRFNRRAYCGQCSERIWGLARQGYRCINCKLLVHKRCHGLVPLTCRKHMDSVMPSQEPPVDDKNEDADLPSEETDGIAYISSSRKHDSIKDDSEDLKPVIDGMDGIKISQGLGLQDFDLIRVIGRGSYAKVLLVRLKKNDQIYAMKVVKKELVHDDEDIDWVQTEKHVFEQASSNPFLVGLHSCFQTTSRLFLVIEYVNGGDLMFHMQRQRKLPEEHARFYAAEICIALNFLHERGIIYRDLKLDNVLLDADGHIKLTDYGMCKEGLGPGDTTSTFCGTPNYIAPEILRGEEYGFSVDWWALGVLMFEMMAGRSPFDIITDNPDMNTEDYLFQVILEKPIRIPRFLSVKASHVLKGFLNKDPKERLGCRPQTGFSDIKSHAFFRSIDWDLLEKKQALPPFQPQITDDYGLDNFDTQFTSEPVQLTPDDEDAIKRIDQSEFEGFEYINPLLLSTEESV
Entry format: amount then unit.

Please review the entries below; each comes with its answer.
COc1ccc(-c2cc3c(=O)[nH]cnc3s2)cc1OC | 0%
O=C(Nc1cnc2[nH]ccn2c1=O)c1ccccc1 | 3%

Record request: inhibition value, item O=C(Nc1cnc2[nH]cnn2c1=O)c1ccccc1 0%

Record request: inhibition value, item CC(=O)Nc1nc2cnc(-c3ccccc3)cn2n1 11%

Record request: inhibition value, item CC(C)(C)Nc1c(COCc2ccccc2)nc2[nH]cnn12 0%

Record request: inhibition value, item CC(C)(C)Nc1c(C2CC2)nc2[nH]cnn12 0%

Record request: inhibition value, item O=c1c(NC(=S)NCc2ccccc2)cnc2[nH]ccn12 0%

Record request: inhibition value, item Nc1nc2cnc(-c3ccccc3)cn2n1 13%

Record request: inhibition value, item CC(=O)Nc1nc2cnc(-c3c(C)cccc3C)cn2n1 0%

Record request: inhibition value, item CC1CN(c2nc3ccccn3c(=O)c2N)CC(C)O1 (configuration not stated) 0%

Record request: inhibition value, item O=C(c1cccc(-c2cc3c(=O)[nH]cnc3s2)c1)N1CCOCC1 0%

Record request: inhibition value, item COc1ccc(NC(=S)Nc2cnc3[nH]cnn3c2=O)cn1 0%

---

biological target: MAPKAPK2 (human); assay: radiometric filter-binding kinase assay; conditions: compound 100.0 µM; ATP 20 µM
// n strictly below 20% in inhibition; y otherwise

Recorded results for 8 compounds are shown here.
COc1ccc(-c2cc3c(=O)[nH]cnc3s2)cc1OC | n
O=C(c1cccc(-c2cc3c(=O)[nH]cnc3s2)c1)N1CCOCC1 | n
O=C(Nc1cnc2[nH]ccn2c1=O)c1ccccc1 | y
O=c1cc(-c2ccccc2F)nc2[nH]ccn12 | y
CC(=O)Nc1nc2cnc(-c3c(C)cccc3C)cn2n1 | n
O=C(Nc1cnc2[nH]cnn2c1=O)c1ccccc1 | n
CC(C)(C)Nc1c(C2CC2)nc2[nH]cnn12 | n
O=c1c(NC(=S)NCc2ccccc2)cnc2[nH]ccn12 | y

Is inhibition at least 20%? Consider CC1CN(c2nc3ccccn3c(=O)c2N)CC(C)O1 (configuration not stated) n

Is inhibition at least 20%? Consider Nc1nc2cnc(-c3ccccc3)cn2n1 y

Is inhibition at least 20%? Consider CC(C)(C)Nc1c(COCc2ccccc2)nc2[nH]cnn12 n

---

target: PIM3 (human) (UniProt Q86V86); experiment: radiometric filter-binding kinase assay; conditions: compound 100.0 µM; ATP 20 µM
inhibition values, listed per item
The answer is to be given in %; state only the numeric part.

COc1ccc(NC(=S)Nc2cnc3[nH]cnn3c2=O)cn1 | 0
Nc1nc2cnc(-c3ccccc3)cn2n1 | 55
CC(C)(C)Nc1c(C2CC2)nc2[nH]cnn12 | 0

Record request: inhibition value, item CC(C)(C)Nc1c(COCc2ccccc2)nc2[nH]cnn12 18

Record request: inhibition value, item Nc1cnc2c(-c3c(F)cccc3F)cccn2c1=O 35

Record request: inhibition value, item O=C(Nc1cnc2[nH]cnn2c1=O)c1ccccc1 0

Record request: inhibition value, item Cc1cccc(C)c1-c1cn2nc(N)nc2cn1 26

Record request: inhibition value, item O=c1cc(-c2ccccc2F)nc2[nH]ccn12 83

Record request: inhibition value, item O=C(Nc1cnc2[nH]ccn2c1=O)c1ccccc1 0

---

molecular target: BRSK1 (human); assay: radiometric filter-binding kinase assay; conditions: compound 100.0 µM; ATP 20 µM
inhibition values, listed per item
The answer is to be given in %; state only the numeric part.

Please review the entries below; each comes with its answer.
O=c1c(NC(=S)NCc2ccccc2)cnc2[nH]ccn12 | 2
COc1ccc(NC(=S)Nc2cnc3[nH]cnn3c2=O)cn1 | 10
CC(C)(C)Nc1c(COCc2ccccc2)nc2[nH]cnn12 | 0
CC(=O)Nc1nc2cnc(-c3c(C)cccc3C)cn2n1 | 0

Kindly consider the entry below.
# get_value(readout= inhibition, system= BRSK1 (human)) for Cc1cccc(C)c1-c1cn2nc(N)nc2cn1 14

---

target: NTRK1 (human); assay: radiometric filter-binding kinase assay; conditions: compound 100.0 µM; ATP 20 µM
inhibition values, listed per item
The answer is to be given in %; state only the numeric part.

CC(=O)Nc1nc2cnc(-c3c(C)cccc3C)cn2n1 | 0
CC(C)(C)Nc1c(COCc2ccccc2)nc2[nH]cnn12 | 6
O=C(Nc1cnc2[nH]cnn2c1=O)c1ccccc1 | 0
COc1ccc(-c2cc3c(=O)[nH]cnc3s2)cc1OC | 15
O=C(Nc1cnc2[nH]ccn2c1=O)c1ccccc1 | 39

Record request: inhibition value, item CC1CN(c2nc3ccccn3c(=O)c2N)CC(C)O1 (stereo not given) 37

Record request: inhibition value, item Cc1cccc(C)c1-c1cn2nc(N)nc2cn1 8

Record request: inhibition value, item O=C(c1cccc(-c2cc3c(=O)[nH]cnc3s2)c1)N1CCOCC1 41

Record request: inhibition value, item Nc1cnc2c(-c3c(F)cccc3F)cccn2c1=O 88

---

target: MAP3K5 (human) (UniProt Q99683); test: radiometric filter-binding kinase assay; details: compound 100.0 µM; ATP 50 µM
Sequence (Q99683 whole entry, looked up): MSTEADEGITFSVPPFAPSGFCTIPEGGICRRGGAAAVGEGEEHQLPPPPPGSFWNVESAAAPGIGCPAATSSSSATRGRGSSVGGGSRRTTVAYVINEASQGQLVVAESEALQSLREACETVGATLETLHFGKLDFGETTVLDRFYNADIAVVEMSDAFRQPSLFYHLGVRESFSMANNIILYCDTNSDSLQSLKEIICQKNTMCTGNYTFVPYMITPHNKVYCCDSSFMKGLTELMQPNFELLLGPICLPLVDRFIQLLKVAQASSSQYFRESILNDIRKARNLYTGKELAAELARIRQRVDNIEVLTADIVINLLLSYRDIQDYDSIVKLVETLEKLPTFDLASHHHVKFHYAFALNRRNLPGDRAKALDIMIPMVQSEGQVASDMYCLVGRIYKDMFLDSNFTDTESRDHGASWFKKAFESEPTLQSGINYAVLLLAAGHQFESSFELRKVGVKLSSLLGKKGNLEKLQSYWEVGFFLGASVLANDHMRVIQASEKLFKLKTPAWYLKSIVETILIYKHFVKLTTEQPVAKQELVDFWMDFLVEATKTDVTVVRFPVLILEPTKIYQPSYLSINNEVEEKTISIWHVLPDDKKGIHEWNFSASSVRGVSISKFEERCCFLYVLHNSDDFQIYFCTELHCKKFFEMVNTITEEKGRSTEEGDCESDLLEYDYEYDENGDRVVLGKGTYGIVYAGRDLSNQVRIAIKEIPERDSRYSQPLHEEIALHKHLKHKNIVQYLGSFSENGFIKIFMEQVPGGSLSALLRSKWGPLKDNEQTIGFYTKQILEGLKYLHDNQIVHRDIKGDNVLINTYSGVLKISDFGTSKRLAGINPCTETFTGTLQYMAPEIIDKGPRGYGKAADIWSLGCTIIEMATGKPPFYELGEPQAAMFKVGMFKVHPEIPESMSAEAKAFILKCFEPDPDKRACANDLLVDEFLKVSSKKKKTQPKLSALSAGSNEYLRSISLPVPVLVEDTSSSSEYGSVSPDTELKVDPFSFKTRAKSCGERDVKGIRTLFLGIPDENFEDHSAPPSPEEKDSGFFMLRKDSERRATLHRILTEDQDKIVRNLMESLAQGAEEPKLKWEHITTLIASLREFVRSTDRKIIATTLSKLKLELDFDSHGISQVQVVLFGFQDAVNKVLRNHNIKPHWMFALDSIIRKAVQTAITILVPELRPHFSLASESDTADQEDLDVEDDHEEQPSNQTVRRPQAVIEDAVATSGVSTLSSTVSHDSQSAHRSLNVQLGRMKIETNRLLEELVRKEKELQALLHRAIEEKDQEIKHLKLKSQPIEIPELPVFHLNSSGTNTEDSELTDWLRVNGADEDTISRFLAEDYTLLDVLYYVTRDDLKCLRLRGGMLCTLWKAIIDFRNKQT
attribute_measured: inhibition (%)
The answer is to be given in %; state only the numeric part.

# get_value(readout= inhibition, system= MAP3K5 (human) (UniProt Q99683)) for O=c1cc(-c2ccccc2F)nc2[nH]ccn12 8

---

inhibition values, listed per item
molecular target: UniProtKB Q9UHD2; experiment: radiometric filter-binding kinase assay; details: compound 100.0 µM; ATP 50 µM
Sequence (Q9UHD2 whole entry, looked up): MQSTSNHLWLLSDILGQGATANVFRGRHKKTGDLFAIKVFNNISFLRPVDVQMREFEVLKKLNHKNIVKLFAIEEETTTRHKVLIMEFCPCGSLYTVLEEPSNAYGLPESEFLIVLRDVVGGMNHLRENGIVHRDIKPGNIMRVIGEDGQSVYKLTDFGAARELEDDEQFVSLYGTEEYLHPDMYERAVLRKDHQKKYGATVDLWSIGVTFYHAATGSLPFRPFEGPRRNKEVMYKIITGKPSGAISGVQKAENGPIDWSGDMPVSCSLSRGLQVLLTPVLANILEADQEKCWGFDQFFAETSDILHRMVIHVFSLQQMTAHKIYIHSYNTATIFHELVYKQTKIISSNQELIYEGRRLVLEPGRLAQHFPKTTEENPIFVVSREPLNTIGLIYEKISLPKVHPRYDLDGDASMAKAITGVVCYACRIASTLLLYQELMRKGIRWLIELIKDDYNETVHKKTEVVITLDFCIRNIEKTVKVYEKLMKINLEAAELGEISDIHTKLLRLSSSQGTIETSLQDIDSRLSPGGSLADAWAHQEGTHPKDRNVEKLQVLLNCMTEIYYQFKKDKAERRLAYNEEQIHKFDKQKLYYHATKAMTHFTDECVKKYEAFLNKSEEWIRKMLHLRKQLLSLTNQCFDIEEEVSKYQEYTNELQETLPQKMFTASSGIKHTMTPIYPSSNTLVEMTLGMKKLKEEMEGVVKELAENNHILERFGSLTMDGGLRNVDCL
The answer is to be given in %; state only the numeric part.

Please review the entries below; each comes with its answer.
O=c1c(NC(=S)NCc2ccccc2)cnc2[nH]ccn12 | 0
O=C(Nc1cnc2[nH]ccn2c1=O)c1ccccc1 | 14
O=C(c1cccc(-c2cc3c(=O)[nH]cnc3s2)c1)N1CCOCC1 | 17
Nc1nc2cnc(-c3ccccc3)cn2n1 | 72

# get_value(readout= inhibition, system= UniProtKB Q9UHD2) for COc1ccc(NC(=S)Nc2cnc3[nH]cnn3c2=O)cn1 7

# get_value(readout= inhibition, system= UniProtKB Q9UHD2) for CC(=O)Nc1nc2cnc(-c3ccccc3)cn2n1 31

# get_value(readout= inhibition, system= UniProtKB Q9UHD2) for CC(C)(C)Nc1c(COCc2ccccc2)nc2[nH]cnn12 9

# get_value(readout= inhibition, system= UniProtKB Q9UHD2) for Cc1cccc(C)c1-c1cn2nc(N)nc2cn1 21

# get_value(readout= inhibition, system= UniProtKB Q9UHD2) for COc1ccc(-c2cc3c(=O)[nH]cnc3s2)cc1OC 3

# get_value(readout= inhibition, system= UniProtKB Q9UHD2) for Nc1cnc2c(-c3c(F)cccc3F)cccn2c1=O 23

# get_value(readout= inhibition, system= UniProtKB Q9UHD2) for O=c1cc(-c2ccccc2F)nc2[nH]ccn12 6

# get_value(readout= inhibition, system= UniProtKB Q9UHD2) for CC(=O)Nc1nc2cnc(-c3c(C)cccc3C)cn2n1 15

# get_value(readout= inhibition, system= UniProtKB Q9UHD2) for O=C(Nc1cnc2[nH]cnn2c1=O)c1ccccc1 24

# get_value(readout= inhibition, system= UniProtKB Q9UHD2) for CC1CN(c2nc3ccccn3c(=O)c2N)CC(C)O1 (stereo not given) 0

# get_value(readout= inhibition, system= UniProtKB Q9UHD2) for CC(C)(C)Nc1c(C2CC2)nc2[nH]cnn12 1

Entry source: the kinase profiling compilation of Christmann-Franck et al. (2016)
